# Test system: PC-3
# PROTOCOL NOTES: Cytotoxicity against human PC3 cells assessed as cell viability at 10 uM after 72 hrs by MTS assay in presence of 10% fetal calf serum relative to control
# Format: functional
# REPORTED CONDITIONS: PC-3, 72 h, read-out: Activity
ASSAY READOUT: viability at 10 µM (%)

1) Cc1c(C)c2c(c(C)c1OC(=O)OC(C)(C)C)CCC(C)(/C=C1\SC(=O)N(Cc3ccccc3)C1=O)O2 (racemic) ... 82.4
2) O=C1S/C(=C\c2ccccc2)C(=O)N1Cc1ccccc1 ... 82.4
3) Cc1c(C)c2c(c(C)c1O)CCC(C)(COc1ccc(/C=C3\SC(=O)N(Cc4ccccc4)C3=O)cc1)O2 (racemic) ... 100
4) Cc1c(C)c2c(c(C)c1OC(=O)OC(C)(C)C)CCC(C)(CN1C(=O)S/C(=C\c3ccc(O)cc3)C1=O)O2 (racemic) ... 85.1
5) COc1cc(/C=C2\SC(=O)N(Cc3ccccc3)C2=O)cc(OC)c1OC ... 67.9
6) CC(C)(C)OC(=O)c1ccccc1-c1ccc(CN2C(=O)S/C(=C\c3ccc(O)cc3)C2=O)cc1 ... 49.9
7) Cc1c(C)c2c(c(C)c1O)CCC(C)(COc1ccc(/C=C3\SC(=O)NC3=O)cc1)O2 (stereo not drawn) ... 83.1
8) CCOC(=O)C1(C)CCc2c(C)c(/C=C3\SC(=O)N(Cc4ccccc4)C3=O)c(C)c(C)c2O1 (racemic) ... 98.3

###

# PROTOCOL NOTES: Cytotoxicity against human hepatocytes assessed as cell viability at 200 uM after 90 mins by MTT assay relative to control
# Type: cell-based, Hepatocyte
# REPORTED CONDITIONS: read-out: Activity
// NB: equality with 30% counts as 0 (no); only viability at 1.5 h, 200 µM strictly below is 1 (yes)

1. Cc1c(C)c2c(c(C)c1OC(=O)OC(C)(C)C)CCC(C)(CN1C(=O)S/C(=C\c3ccc(O)cc3)C1=O)O2 (racemic) ... 0 (no)
2. Cc1c(C)c2c(c(C)c1OC(=O)CCCCCCCNC(=O)OC(C)(C)C)CCC(C)(COc1ccc(/C=C3\SC(=O)NC3=O)cc1)O2 (stereo not drawn) ... 0 (no)
3. O=C1S/C(=C\c2ccc(O)cc2)C(=O)N1Cc1ccccc1 ... 1 (yes)
4. O=C1S/C(=C\c2ccc(O)cc2)C(=O)N1C/C=C/c1ccccc1 ... 0 (no)
5. Cc1c(C)c2c(c(C)c1CCCCCCNC(=O)OC(C)(C)C)CCC(C)(COc1ccc(/C=C3\SC(=O)NC3=O)cc1)O2 (racemic) ... 0 (no)
6. Cc1c(C)c2c(c(C)c1O)CCC(C)(COc1ccc(CC3SC(=O)NC3=O)cc1)O2 (stereo not drawn) ... 1 (yes)
7. Cc1c(C)c2c(c(C)c1OC(=O)CCCCCCCN)CCC(C)(COc1ccc(/C=C3\SC(=O)N(C)C3=O)cc1)O2 (racemic) ... 0 (no)

###

# System: LNCaP
# PROTOCOL NOTES: Cytotoxicity against human LNCAP cells assessed as cell viability at 10 uM after 72 hrs by MTS assay in presence of 10% fetal calf serum relative to control
# Format: functional
# REPORTED CONDITIONS: read-out: Activity
ASSAY READOUT: viability at 10 µM

1) Cc1c(C)c2c(c(C)c1OC(=O)CCCCCCCN)CCC(C)(COc1ccc(/C=C3\SC(=O)N(C)C3=O)cc1)O2 (racemic) ... 9.3%
2) Cc1c(C)c2c(c(C)c1CCCCCCN)CCC(C)(COc1ccc(/C=C3\SC(=O)NC3=O)cc1)O2.O=C(O)C(F)(F)F (racemic) ... 46.8%
3) Cc1c(C)c2c(c(C)c1O)CCC(C)(/C=C1\SC(=O)N(Cc3ccccc3)C1=O)O2 (racemic) ... 84.6%
4) Cc1c(C)c2c(c(C)c1OC(=O)CCCCCCCNC(=O)OC(C)(C)C)CCC(C)(COc1ccc(/C=C3\SC(=O)NC3=O)cc1)O2 (centres undefined) ... 21.1%
5) Cc1c(C)c2c(c(C)c1CCCCCCN)CCC(C)(COc1ccc(/C=C3\SC(=O)N(C)C3=O)cc1)O2.O=C(O)C(F)(F)F (racemic) ... 11.6%
6) O=C1S/C(=C\c2ccccc2)C(=O)N1Cc1ccccc1 ... 90.8%
7) Cc1c(C)c2c(c(C)c1O)CCC(C)(COc1ccc(/C=C3\SC(=O)NC3=O)cc1)O2 (centres undefined) ... 85.4%
8) Cc1c(C)c2c(c(C)c1OC(=O)OC(C)(C)C)CCC(C)(CN1C(=O)S/C(=C\c3ccc(O)cc3)C1=O)O2 (racemic) ... 55%
9) COc1ccc(/C=C2\SC(=O)N(Cc3ccccc3)C2=O)cc1 ... 100%
10) CC1(CN2C(=O)S/C(=C\c3cc(Br)c(O)c(Br)c3)C2=O)CCCCC1 ... 18.8%
11) COc1cc(/C=C2\SC(=O)N(Cc3ccccc3)C2=O)cc(OC)c1OC ... 76.2%
12) Cc1c(C)c2c(c(C)c1CCCCCCNC(=O)OC(C)(C)C)CCC(C)(COc1ccc(/C=C3\SC(=O)NC3=O)cc1)O2 (racemic) ... 32.2%
13) O=C1S/C(=C\c2ccc(O)cc2)C(=O)N1Cc1ccccc1 ... 77.6%
14) CC(C)(C)OC(=O)c1ccccc1-c1ccc(CN2C(=O)S/C(=C\c3ccc(O)cc3)C2=O)cc1 ... 32.4%
15) O=C1S/C(=C\c2ccc(O)cc2)C(=O)N1C/C=C/c1ccccc1 ... 63.4%
16) Cc1c(C)c2c(c(C)c1O)CCC(C)(COc1ccc(/C=C3\SC(=O)N(C)C3=O)cc1)O2 (racemic) ... 66.8%
17) Cc1c(C)c2c(c(C)c1OC(=O)OC(C)(C)C)CCC(C)(/C=C1\SC(=O)N(Cc3ccccc3)C1=O)O2 (racemic) ... 96.2%
18) Cc1c(C)c2c(c(C)c1O)CCC(C)(CN1C(=O)S/C(=C\c3ccc(O)cc3)C1=O)O2 (racemic) ... 48.9%
19) Cc1c(C)c2c(c(C)c1O)CCC(C)(COc1ccc(CC3SC(=O)NC3=O)cc1)O2 (centres undefined) [TROGLITAZONE] ... 82.8%
20) Cc1c(C)c2c(c(C)c1O)CCC(C)(COc1ccc(/C=C3\SC(=O)N(Cc4ccccc4)C3=O)cc1)O2 (racemic) ... 85.7%
21) CCOC(=O)C1(C)CCc2c(C)c(/C=C3\SC(=O)N(Cc4ccccc4)C3=O)c(C)c(C)c2O1 (racemic) ... 87.5%
22) O=C(O)c1ccccc1-c1ccc(CN2C(=O)S/C(=C\c3ccc(O)cc3)C2=O)cc1 ... 90.1%
23) O=C1S/C(=C\c2ccc([N+](=O)[O-])cc2)C(=O)N1Cc1ccccc1 ... 77.9%
24) O=C1S/C(=C\c2ccc(Cl)cc2)C(=O)N1Cc1ccccc1 ... 85.5%

###

# Tested on: MDA-MB-231
# PROTOCOL NOTES: Cytotoxicity against human MDA-MB-231 cells assessed as cell viability at 10 uM after 72 hrs by MTS assay in presence of 10% fetal calf serum relative to control
# Format: functional
# REPORTED CONDITIONS: MDA-MB-231, 72 h, read-out: Activity
In this section, each of the compounds is paired with its reported viability at 10 µM.
ASSAY READOUT: viability at 10 µM (%)

1) Cc1c(C)c2c(c(C)c1OC(=O)CCCCCCCNC(=O)OC(C)(C)C)CCC(C)(COc1ccc(/C=C3\SC(=O)NC3=O)cc1)O2 (centres undefined) ... 42.2
2) Cc1c(C)c2c(c(C)c1CCCCCCN)CCC(C)(COc1ccc(/C=C3\SC(=O)N(C)C3=O)cc1)O2.O=C(O)C(F)(F)F (racemic) ... 0
3) CC(C)(C)OC(=O)c1ccccc1-c1ccc(CN2C(=O)S/C(=C\c3ccc(O)cc3)C2=O)cc1 ... 51.9
4) CC1(CN2C(=O)S/C(=C\c3cc(Br)c(O)c(Br)c3)C2=O)CCCCC1 ... 46.9
5) Cc1c(C)c2c(c(C)c1O)CCC(C)(COc1ccc(CC3SC(=O)NC3=O)cc1)O2 (centres undefined) ... 88.1
6) O=C1S/C(=C\c2ccc([N+](=O)[O-])cc2)C(=O)N1Cc1ccccc1 ... 64.6
7) O=C1S/C(=C\c2ccccc2)C(=O)N1Cc1ccccc1 ... 81.6
8) COc1ccc(/C=C2\SC(=O)N(Cc3ccccc3)C2=O)cc1 ... 89.5
9) Cc1c(C)c2c(c(C)c1O)CCC(C)(COc1ccc(/C=C3\SC(=O)N(C)C3=O)cc1)O2 (racemic) ... 64.3

###

In this section, each of the molecules is paired with its reported viability at 10 µM.
# System: MDA-MB-231
# PROTOCOL NOTES: Cytotoxicity against human MDA-MB-231 cells assessed as cell viability at 10 uM after 72 hrs by MTS assay in presence of 10% fetal calf serum relative to control
# Assay type: functional
# REPORTED CONDITIONS: MDA-MB-231, 72 h, read-out: Activity
ASSAY READOUT: viability at 10 µM (%)

1) Cc1c(C)c2c(c(C)c1O)CCC(C)(COc1ccc(/C=C3\SC(=O)NC3=O)cc1)O2 (centres undefined) ... 69.3
2) COc1cc(/C=C2\SC(=O)N(Cc3ccccc3)C2=O)cc(OC)c1OC ... 51.5
3) Cc1c(C)c2c(c(C)c1OC(=O)OC(C)(C)C)CCC(C)(CN1C(=O)S/C(=C\c3ccc(O)cc3)C1=O)O2 (racemic) ... 57.9
4) Cc1c(C)c2c(c(C)c1OC(=O)OC(C)(C)C)CCC(C)(/C=C1\SC(=O)N(Cc3ccccc3)C1=O)O2 (racemic) ... 75.4

Provenance of the data: ChEMBL document CHEMBL3297735
